Test system: MS2 coat protein
EXPERIMENT DESCRIPTION: apparent KD of MS2 coat protein; designed switch direction (-1 OFF switch, 1 ON switch): -1; higher = weaker reporter binding
PROTOCOL CONDITIONS: input ligand: none
Record 1 whenever apparent KD of MS2 coat protein is at 50 nM or higher; record 0 when lower.

Solved cases below.
*Q* Threshold query (apparent KD of MS2 coat protein >= 50 nM) on AGGUGCUUCUGGAGACAUGAGGAUCACCCAUGUCGAGUCAGCGAGGAUAUCGGUAAGACAUGUGAUGAGAAGGCGCAGACCGAU [Ex NG3 #52] (Eterna round: R96, puzzle: Exclusion NG 3)
*A* 0

*Q* Threshold query (apparent KD of MS2 coat protein >= 50 nM) on UUUUUACAUGAGGAUCACCCAUGUGAGGAUAUGGAGCGCGACCGCGCGGUCGCGUACACCAGAAGGCGCAGGAU [1st #76] (Eterna round: R97, puzzle: Exclusion 1)
*A* 0

*Q* Threshold query (apparent KD of MS2 coat protein >= 50 nM) on CGAUUGUGAGGAUAUACUUGUGGUAAUGCACCUGUAUGUAAACAUGAGGAUCACCCAUGUAGAAGGUACGACAG [Eternabot (L2) Solution 11] (Eterna round: R97, puzzle: Exclusion 2)
*A* 0

***
*Q* Threshold query (apparent KD of MS2 coat protein >= 50 nM) on GCGACUGGAGGAUAUACAUGAGGAUCACCCAUGUGAUCUAAAAGGGUCUUAUGCCGGUGUAGAAGGCCGAGCAG [Eternabot (L2) Solution 84] (Eterna round: R97, puzzle: Exclusion 3)
*A* 0

*Q* Threshold query (apparent KD of MS2 coat protein >= 50 nM) on CAGACGGCCGUAGGAUAUGCAGCAAAGACGUGAGCAGAAGGACGAUACAUGAGGAUCACCCAUGUACGUGGGUAGUGCGCAUGC [Veustean] (Eterna round: R96, puzzle: Exclusion NG 1)
*A* 0

*Q* Threshold query (apparent KD of MS2 coat protein >= 50 nM) on GGUUGGCGAGGAUAUACAUGAGGAUCACCCAUGUGGUCCUGUGGCUGGAAAAACCUUUGUAGAAGGCGCGGGUC [salish99_ex3_r4_028] (Eterna round: R97, puzzle: Exclusion 3)
*A* 1

*Q* Threshold query (apparent KD of MS2 coat protein >= 50 nM) on AAUACAAGCUAUUGAUCCCACAUGAGGAUCACCCAUGUUCCUGGCCGUGAGACAAGGUUGACAAUAGCUCGUCUUAU [Sensor-V1 #45] (Eterna round: R97, puzzle: Sensor, turn-off variant 1)
*A* 1

###

# apparent KD of MS2 coat protein values compiled below
System: MS2 coat protein
EXPERIMENT DESCRIPTION: apparent KD of MS2 coat protein; designed switch direction (-1 OFF switch, 1 ON switch): 1; higher = weaker reporter binding
PROTOCOL CONDITIONS: input ligand: none
Write the value in nM as a bare number.

*Q* Return reported apparent KD of MS2 coat protein for target or system MS2 coat protein, item CCUAUAGCCACAGGAUAUGAGAACACGUUGAACGUACAUGAGGAUCACCCAUGUCGCCGAUCGACUUAGAAGGGUGGCCCUCGC [Eternabot solution 26] (Eterna round: R96, puzzle: Same State NG 2) .
*A* 29.4

*Q* Return reported apparent KD of MS2 coat protein for target or system MS2 coat protein, item GGAGCCAAGGCAGGAUAUUCAUAUUAAAACAUGAGGAUCACCCAUGUAAAGGCCAGAAGGCCGUGGGAGAAGGGCCAUGGCUCG [Xeonanis - 13 mod15] (Eterna round: R96, puzzle: Same State NG 2) .
*A* 116

*Q* Return reported apparent KD of MS2 coat protein for target or system MS2 coat protein, item GCAAAGGCGGUAGGAUAUCUAGGAUAUGGGAAAGACUAAGUCUGUAGGUCACCUAACCCAGAAGGAGAGAAGGACACCGAAAGG [pwkr ssNG2 2FMN + F9.25] (Eterna round: R96, puzzle: Same State NG 2) .
*A* 73.7

*Q* Return reported apparent KD of MS2 coat protein for target or system MS2 coat protein, item UAAAGAUCGCGAGGAUAUCGCGAGGAUCACCCGUGAGAAGGCGCAGAGCCGAGGAUCACCCGGCUGAUCCUGAGGAGGAGGUAA (Eterna round: R96, puzzle: Same State NG 1) .
*A* 556

*Q* Return reported apparent KD of MS2 coat protein for target or system MS2 coat protein, item GGUAGGUUACUACCAAUCACAUGAGGAUCACCCAUGUUGUGGGAGGAUAUGGUACCUAUUUGGUACCAGAAGGCCUUAUUAAUU [Fiskers NG3ss - 11] (Eterna round: R96, puzzle: Same State NG 3) .
*A* 85.2

***
*Q* Return reported apparent KD of MS2 coat protein for target or system MS2 coat protein, item UUAUCCUUUUUUUACAUGAGGAUCACCCAUGUUUUUCUUACGUAGGAUAUCGUUGUUUUUUUUUACGAGAAGGACGUAGUAUGU [JR_SSND3_Sub062] (Eterna round: R96, puzzle: Same State NG 3) .
*A* 36.5

*Q* Return reported apparent KD of MS2 coat protein for target or system MS2 coat protein, item GGUAUUAACACAGGAUAUGCUUACGAAACGUAAGCAGAAGGGUGAACAUGAGGAUCACCCAUGUAUGUACCAGGGCGUGAGCCC [JL SSNG1 1.73] (Eterna round: R96, puzzle: Same State NG 1) .
*A* 1040

*Q* Return reported apparent KD of MS2 coat protein for target or system MS2 coat protein, item CCGAUCUACCGAAAGGUAGAUGGGCUUGUACAUGAGGAUCACCCAUGUCAGUACAAGCUUUUUGCUCCUCUUAUCCU [salish99-hsa-208a-40] (Eterna round: R96, puzzle: Sensor for hsa-mir-208a) .
*A* 42.7

*Q* Return reported apparent KD of MS2 coat protein for target or system MS2 coat protein, item GGUGGGUUACUACCCACACAUGAGGAUCACCCAUGUAUUGGGAAGGAUAUGGUGCCUAUUUGGUACCAGAAGGUCCUGAAGGUG [SS-NG3-LRO17] (Eterna round: R96, puzzle: Same State NG 3) .
*A* 1770

###

Tested on: MS2 coat protein
EXPERIMENT DESCRIPTION: apparent KD of MS2 coat protein; designed switch direction (-1 OFF switch, 1 ON switch): -1; higher = weaker reporter binding
PROTOCOL CONDITIONS: input ligand: none
OBSERVABLE: apparent KD of MS2 coat protein (nM)
Write the value in nM as a bare number.

*Q* Specify apparent KD of MS2 coat protein for CGGCAUGAAGGAUAUACAUGAGGAUCACCCAUGUAAGUUACCUACAUGGCCUCACCUAGUAGAAGGUUAUCCGG [Eternabot (L2) Solution 72] (Eterna round: R97, puzzle: Exclusion 3) and stop.
*A* 28

*Q* Specify apparent KD of MS2 coat protein for UCGAUGUGAGGAUAUAUAUGCAGUAGUCCUUGUGUUUUAUAACUUGAGGAUCACCCAAGUAGAAGGCGCGACGU [JR_Ex2_Sub059] (Eterna round: R97, puzzle: Exclusion 2) and stop.
*A* 33.5

*Q* Specify apparent KD of MS2 coat protein for GGCCCGCGCGUGAGGAUAUGCUGAUACUAGGAUUAGCAGAAGGCACAUGAGGAUCACCCAUGUCCAACUUGUCU [LRO-BmodExc4-11- Bluer = mod of Colors by Tatyana Zabanova] (Eterna round: R97, puzzle: Brourd's mod of Exclusion 4) and stop.
*A* 24.5

***
*Q* Specify apparent KD of MS2 coat protein for GGGUGCAAGCUAAGAUCCUACAUGAGGAUCACCCAUGUGGUCCGGUGACGUGAGUCACCGGACUUAGCUCGUCUUGU [salish99_S_TOV1_R5_004] (Eterna round: R97, puzzle: Sensor, turn-off variant 1) and stop.
*A* 95.6

*Q* Specify apparent KD of MS2 coat protein for GACUAAACACGAGGAUAUGCCUGGGAAGAACAGGCAGAAGGCGUGACAUGAGGAUCACCCAUGUAGCCGGGCUAUUCUCGUGUG [Orlaes] (Eterna round: R96, puzzle: Exclusion NG 1) and stop.
*A* 29.3

###

Test system: K4 kissing-loop RNA reporter;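 note: bound reporter read as fluorescence of individual clusters on recovered sequencing chips by microscopy, with normalized cluster intensities fitted with a binding model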
EXPERIMENT DESCRIPTION: apparent KD of K4 kissing-loop reporter; higher = weaker reporter binding
PROTOCOL CONDITIONS: Eterna round: R107; input ligand: arginine 13.2 mM
OBSERVABLE: apparent KD of K4 kissing-loop reporter (nM)
Write the value in nM as a bare number.

Previously resolved entries follow.
*Q* Specify apparent KD of K4 kissing-loop reporter for UGAUUGGCGAAAGUAGUGAUGUUACGAAUAUAGGAUAUUAGAGGAAUAAGAAGGAUAAAGGAGAAAUAGGUAAAUUGUUGGUUGG [whbob_SS_FMNA__2th169] and stop.
*A* 59.8

*Q* Specify apparent KD of K4 kissing-loop reporter for GCAGUGAUGUUGCGCGGGUACGGUAGAGUGCGAGGACCGGUACGGCCGCCACUCGUACGGAACUGGCUAAUAUAUGGAUAGGUGA [V] and stop.
*A* 318

*Q* Specify apparent KD of K4 kissing-loop reporter for GGUAGCAUGGCGGCCGCCACUACCUAGUGAUGUUAGGCUGUGGACAUAGGAGCAAAAUAAAUAUGUAGGACCGGGCCAUGCUACC and stop.
*A* 101

*Q* Specify apparent KD of K4 kissing-loop reporter for UGGGCUGCCUGAGGAUAUAGAGACGAGUGAUGUUCGUGGAUAAGAGCCAGUGAUGUUGGGUUAUUUCUAGAAGGCGGGCGAACUU [Exclusion FMN B GF8] and stop.
*A* 104

*Q* Specify apparent KD of K4 kissing-loop reporter for UUACCAAGUGAUGUUUGGAAAUAUCCUAGGCAGGAUAUGCGGAAACGCAGAAGGGCCACCUUCUAGUGAAGGAAACUUCGCUAUU [Ex FMN A 3] and stop.
*A* 199

***
*Q* Specify apparent KD of K4 kissing-loop reporter for UGAUACCAGACGGCCGCCACUGCACCAGUCAAUGACUGAGUGCGGUAGUGCUCAGUGAUGUUGAGUAGGACCGGGUCUGGUAUCU [Mod of Eli's TrypBX 8 v3] and stop.
*A* 124

*Q* Specify apparent KD of K4 kissing-loop reporter for AUCAGUGUCUCACGCUACGACAUAUACGAUACCAGUCACCCUGAUGACCCUUGGCAGCGUCAACGAGUGAUGUUCGGGUUCUAGA [theeternabot_sameState_KL_Theo_A_1] and stop.
*A* 241
